- METHOD_NOTES: Half life in iv dosed dog plasma
- Assay type: ADME, organism-based, Canis lupus familiaris
MEASUREMENT_NAME: half-life (h)
Give bare numbers, in h.

Reported half-life for `COc1ccc(-c2cc(N3C[C@H](c4cc(F)c(F)cc4F)[C@@H](N)C3)ncn2)cn1` was 5.1

* * *

- METHOD_NOTES: Half life in po dosed rat plasma
- Assay type: ADME, organism-based
MEASUREMENT_NAME: half-life

Entry `COc1ccc(-c2cc(N3C[C@H](c4cc(F)c(F)cc4F)[C@@H](N)C3)ncn2)cn1` ; half-life = 3.3 h

* * *

- METHOD_NOTES: Plasma clearance in rat
- Assay type: ADME, organism-based
MEASUREMENT_NAME: clearance (mL/min/kg)
Give bare numbers, in mL/min/kg.

Record `COc1ccc(-c2cc(N3C[C@H](c4cc(F)c(F)cc4F)[C@@H](N)C3)ncn2)cn1` , field clearance: 4.4

* * *

- SUBJECT_OF_TEST: Dipeptidyl peptidase 3 (Homo sapiens)
- Sequence (Q9NY33 whole entry): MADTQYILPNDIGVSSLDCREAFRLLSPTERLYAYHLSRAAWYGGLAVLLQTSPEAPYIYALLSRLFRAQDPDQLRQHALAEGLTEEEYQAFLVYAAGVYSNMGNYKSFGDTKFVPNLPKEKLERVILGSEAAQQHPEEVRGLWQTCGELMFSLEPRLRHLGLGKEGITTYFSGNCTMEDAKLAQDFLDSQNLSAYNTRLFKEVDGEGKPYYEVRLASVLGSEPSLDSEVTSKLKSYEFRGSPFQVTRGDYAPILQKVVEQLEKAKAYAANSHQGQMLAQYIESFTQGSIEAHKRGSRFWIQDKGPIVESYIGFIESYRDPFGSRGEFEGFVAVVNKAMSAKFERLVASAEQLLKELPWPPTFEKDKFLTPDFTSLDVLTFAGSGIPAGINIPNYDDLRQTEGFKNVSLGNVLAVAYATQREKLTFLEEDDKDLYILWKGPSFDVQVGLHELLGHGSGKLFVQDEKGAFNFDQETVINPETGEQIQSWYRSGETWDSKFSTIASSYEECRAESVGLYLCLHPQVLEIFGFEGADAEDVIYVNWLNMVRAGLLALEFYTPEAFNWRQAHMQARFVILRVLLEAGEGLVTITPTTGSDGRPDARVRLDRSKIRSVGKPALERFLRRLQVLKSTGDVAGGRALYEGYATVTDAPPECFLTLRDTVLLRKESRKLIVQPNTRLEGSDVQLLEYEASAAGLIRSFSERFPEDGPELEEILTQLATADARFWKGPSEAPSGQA
MEASUREMENT_NAME: IC50

The value of IC50 recorded for `COc1ccc(-c2cc(N3C[C@H](c4cc(F)c(F)cc4F)[C@@H](N)C3)ncn2)cn1` when tested on Dipeptidyl peptidase 3 (Homo sapiens) reads > 30 µM

* * *

- METHOD_NOTES: Volume of distribution at steady state in dog plasma
- Format: ADME, organism-based, Canis lupus familiaris
- APPLIED_CONDITIONS: read-out: Vdss
MEASUREMENT_NAME: Vd

What the record says about `COc1ccc(-c2cc(N3C[C@H](c4cc(F)c(F)cc4F)[C@@H](N)C3)ncn2)cn1` : Vd is 1.9 L/kg

* * *

- METHOD_NOTES: Half life in iv dosed rat plasma
- Type: ADME, organism-based
MEASUREMENT_NAME: half-life (h)
Answers are plain numbers, in h.

According to the records, this molecule `COc1ccc(-c2cc(N3C[C@H](c4cc(F)c(F)cc4F)[C@@H](N)C3)ncn2)cn1` displays half-life of 2.8

* * *

Record form. Attribute: IC50. Fill in for each entry.
- SUBJECT_OF_TEST: Dipeptidyl peptidase 2 (Homo sapiens)
- METHOD_NOTES: Inhibition of human recombinant DPP2
Answers are plain numbers, in µM.

Record IC50 for all entries; do not skip any.
1. N[C@H]1CN(c2cc(-c3cccc(F)c3)ncn2)C[C@@H]1c1cc(F)c(F)cc1F
2. N[C@H]1CN(c2cc(-c3ccccc3)ncn2)C[C@@H]1c1cc(F)c(F)cc1F
3. COc1ccc(-c2cc(N3C[C@H](c4cc(F)c(F)cc4F)[C@@H](N)C3)ncn2)cn1

15
18
19

* * *

- METHOD_NOTES: Volume of distribution at steady state in rat plasma
- Format: ADME, organism-based
- APPLIED_CONDITIONS: read-out: Vdss
MEASUREMENT_NAME: Vd
# include the unit after the value

Recorded result, `COc1ccc(-c2cc(N3C[C@H](c4cc(F)c(F)cc4F)[C@@H](N)C3)ncn2)cn1` , Vd: 0.67 L/kg
